biological target: Ribonuclease pancreatic; experiment: Activity at RNase A
Assay Metric: Ki (µM)

I would be grateful if you could share the reported Ki for "Cc1cn([C@H]2C[C@H](OC(=O)c3ccccc3)[C@@H](CO)O2)c(=O)[nH]c1=O" . 95

P: Cc1cn([C@H]2C[C@H](OP(=O)(O)O)[C@@H](CO)O2)c(=O)[nH]c1=O
Q: CC(=O)O[C@H]1C[C@H](n2cc(C)c(=O)[nH]c2=O)O[C@@H]1CO
R: Nc1ccn([C@@H]2O[C@H](CO)[C@@H](OP(=O)(O)O)[C@H]2O)c(=O)n1
List by increasing Ki. State the ranking by listing the labels in the requested order. P, Q, R
(P: 13.2 µM, Q: 42 µM, R: 103 µM)

Every entry's value here was drawn from ChEMBL document CHEMBL1143981.
